Tested on: murine normal gastric organoid
Test: IC50 (viability, PrestoBlue) (log10 nM)
Settings: exposure time: 72 h
Counter-ions that a name gives are not always drawn.
Label key: true (1) means IC50 (log10 nM) under 3; false (0) means IC50 (log10 nM) of 3 or more.

Completed entries (count: 2):
compound=CCc1cnn2c(NCc3ccc[n+]([O-])c3)cc(N3CCCC[C@H]3CCO)nc12 label_class="false (0)"
compound=CO[C@@]12[C@H](COC(N)=O)C3=C(C(=O)C(C)=C(N)C3=O)N1C[C@@H]1N[C@@H]12 label_class="true (1)"

Exam item: I wonder whether COC(=O)C[C@](O)(CCCC(C)(C)O)C(=O)O[C@@H]1C(OC)=C[C@]23CCCN2CCc2cc4c(cc2[C@H]13)OCO4 has IC50 (log10 nM) below 3. Can you tell?
Marked response: true (1)

Exam item: I wonder whether COc1ccc(/C=C\c2cc(OC)c(OC)c(OC)c2)cc1OP(=O)(O)O [Fosbretabulin disodium] has IC50 (log10 nM) below 3. Can you tell?
Marked response: true (1)

Exam item: I wonder whether O=C(CCCCCCC(=O)Nc1ccccc1)NO has IC50 (log10 nM) below 3. Can you tell?
Marked response: false (0)

Exam item: I wonder whether CSc1ccc2c(c1)N(CCC1CCCCN1C)c1ccccc1S2 (stereo not drawn) [Thioridazine hydrochloride] has IC50 (log10 nM) below 3. Can you tell?
Marked response: false (0)

Exam item: I wonder whether C[C@@H](Oc1cc(-c2cnn(C3CCNCC3)c2)cnc1N)c1c(Cl)ccc(F)c1Cl has IC50 (log10 nM) below 3. Can you tell?
Marked response: false (0)

Exam item: I wonder whether Nc1ncn([C@H]2C[C@H](O)[C@@H](CO)O2)c(=O)n1 has IC50 (log10 nM) below 3. Can you tell?
Marked response: true (1)

Taken from the supplement of paper PMC9549728.
